Each recorded value in this set is attributed to patent US11370763B2.

Give pIC50 for every item shown.
System: IL-1β production in PMA-differentiated THP-1 cells
assay: IL-1β production in PMA-differentiated THP-1 cells stimulated with gramicidin (hTHP-1 assay containing 2% fetal bovine serum; Procedures 1-3)
Type: cell-based, human
statedConditions: Homo sapiens, THP-1, hTHP-1 assay containing 2% fetal bovine serum; class symbols; read-out: hTHP-1 IC50 (Average IC50 of compounds in hTHP-1 assay)
pIC50: −log10 of the molar value.

Worked examples, 3 molecules total:
CC(C)(O)c1ncc([S@@](N)(=O)=NC(=O)Cc2cc3c(c4c2CCC4)CCC3)s1 [Compound 259a] : 4.52 to 5.30
CC(C)c1cc(C#N)nc(C(C)C)c1CC(=O)N=S(N)(=O)c1cc(C(C)(C)O)cs1 (stereo not shown) : 6.00 to 6.70
CC(C)c1cc(C(F)F)cc(C(C)C)c1CC(=O)N=S(N)(=O)c1ccc(C(C)(C)O)cc1F (stereo not shown) : 6.00 to 6.70

Consider the additional molecule presented here.
CC(C)c1cc(F)cc(C(C)C)c1CC(=O)N[S@@](=N)(=O)c1ncc(C(C)(C)O)s1 (single isomer, unassigned) has a reported pIC50 of 6.00 to 6.70
